# TARGET_ENTITY: pERK1/2 (Thr202/Tyr204), NCI-1H441 (KRAS G12V) (Homo sapiens, UniProt P01116, G12V)
# Construct: pERK1/2 HTRF read-out
# Sequence (P01116 1-188 isoform P01116-2 G12V): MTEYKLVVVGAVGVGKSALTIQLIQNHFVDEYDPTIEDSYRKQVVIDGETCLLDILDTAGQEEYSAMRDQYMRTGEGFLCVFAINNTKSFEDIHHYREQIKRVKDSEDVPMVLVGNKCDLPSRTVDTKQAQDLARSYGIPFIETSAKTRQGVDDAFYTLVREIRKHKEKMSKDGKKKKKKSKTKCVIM
# ASSAY_EXPLANATION: Assay of intracellular pERK1/2 (Thr202/Tyr204) phosphorylation in NCI-H441 cells (KRAS G12V)
# Format: cell-based
# ASSAY_CONTEXT: pERK1/2, 2 days, read-out: NCI-H441 (KRAS G12V) IC50
MEASURE_NAME: IC50 (nM)

MOLECULE	UNIT_SPEC	SIGN	VALUE_OBSERVED
[2H]C1([2H])CC[C@@]2(C([2H])([2H])Oc3nc4c5c(nc(-c6cc(N)c(F)c(C)c6C(F)(F)F)c(F)c5n3)OCCN4[C@@H](C)c3cccnc3N)C[C@@H](F)CN12 (single isomer, unassigned)	nM	=	40
Cc1c(F)c(N)cc(-c2nc3c4c(nc(OC[C@@]56CCCN5C[C@H](F)C6)nc4c2F)N(C(C)c2cc(F)cnc2N)CCO3)c1C(F)(F)F (stereo partly shown)	nM	=	2
Cc1cc2[nH]ncc2c(-c2nc3c4c(nc(OC[C@@]56CCCN5C[C@H](F)C6)nc4c2F)N(C(C)c2cccnc2N)[C@@H]2COCC[C@H]2O3)c1C(F)(F)F (stereo partly shown)	nM	>	100
CC(c1cccnc1N)N1CCOc2nc(-c3cc(O)cc(Cl)c3C3CC3)c(F)c3nc(OC[C@@H]4CCN4CC(F)F)nc1c23 (single isomer, unassigned) [Compound 21]	nM	=	3
CC(c1cccnc1N)N1CCOc2nc(-c3cc(O)cc4ccc(F)c(F)c34)c(F)c3ncnc1c23 (single isomer, unassigned) [Compound 29]	nM	>	1000
CC(c1cccnc1N)N1CCOc2nc(-c3cc(O)cc(Cl)c3C3CC3)c(F)c3nc(OC[C@@]45CCCN4C[C@H](F)C5)nc1c23 (single isomer, unassigned) [Compound 44]	nM	=	0.6
CC(c1cccnc1N)N1CCOc2nc(-c3cc(O)cc4ccc(F)c(F)c34)c(F)c3nc(OC[C@@H]4COCCN4)nc1c23 (stereo partly shown)	nM	=	247
Cc1cc(N)cc(-c2nc3c4c(nc(OC[C@@H]5C[C@@H](F)CN5C)nc4c2F)N(C(C)c2cccnc2N)CCO3)c1C(F)(F)F (single isomer, unassigned) [Compound 80]	nM	=	0.7
CC(c1cccnc1N)N1CCOc2nc(-c3cc(O)cc4ccc(F)c(F)c34)c(F)c3nc(OCC4(CN(C)C)CC4)nc1c23 (stereo not shown)	nM	=	33
Cc1cc(N)cc(-c2nc3c4c(nc(OC[C@@]56CCCN5C[C@H](F)C6)nc4c2F)N(C(C)c2cccnc2N)[C@@H](C)CO3)c1C(F)(F)F (stereo partly shown) [Compound 262]	nM	=	47
CCc1c(F)ccc2cc(O)cc(-c3nc4c5c(nc(OC[C@@]67CCCN6C[C@H](F)C7)nc5c3F)N(C(C)c3cccnc3NC(=O)[C@H](C)N)[C@@H](C)CO4)c12 (stereo partly shown)	nM	=	2
Cc1cc(N)cc(-c2nc3c4c(nc(OCC5(CN(C)C)CC5)nc4c2F)N(C(C)c2cccnc2N)CCO3)c1C(F)(F)F (stereo not shown)	nM	=	10
CC(c1cccnc1N)N1CCOc2nc(-c3cc(N)cc(Cl)c3C3CC3)c(F)c3nc(OC[C@@]45CCCN4C[C@H](F)C5)nc1c23 (stereo partly shown) [Compound 66]	nM	=	0.4
Cc1cc(N)cc(-c2nc3c4c(nc(OC[C@@H]5CCCN5C)nc4c2F)N(C(C)c2cccnc2N)CCO3)c1C(F)(F)F (stereo partly shown) [Compound 65]	nM	=	2
[2H]C([2H])(Oc1nc2c3c(nc(-c4cc(N)ccc4C(F)(F)F)c(F)c3n1)OCCN2C(C)c1cccnc1N)[C@@H]1C[C@@H](F)CN1C([2H])([2H])[2H] (stereo partly shown)	nM	=	31
CC(c1cccnc1N)N1CCOc2nc(-c3cc(N)ccc3C(F)(F)F)c(F)c3nc(OC[C@@]45CCCN4C[C@H](F)C5)nc1c23 (stereo partly shown) [Compound 18]	nM	=	3
CC(c1cccnc1N)N1c2nc(OC[C@@H]3C[C@@H](F)CN3C)nc3c(F)c(-c4cc(N)cc(Cl)c4C(F)(F)F)nc(c23)OC[C@@H]1C (single isomer, unassigned)	nM	=	0.4
CC(c1cccnc1N)N1c2nc(OC[C@@]34CCCN3C[C@H](F)C4)nc3c(F)c(-c4c5c(cc6[nH]ncc46)CC=C5F)nc(c23)OC[C@@H]1C (stereo partly shown)	nM	=	2
[2H]C1([2H])CN(C(C)c2cccnc2N)c2nc(OC[C@@]34CCCN3C[C@H](F)C4)nc3c(F)c(-c4cc(N)cc(C)c4C(F)(F)F)nc(c23)O1 (single isomer, unassigned) [Compound 154]	nM	=	31
CC(c1cccnc1N)N1c2nc(OC[C@@]34CCCN3C[C@H](F)C4)nc3c(F)c(-c4c5cn[nH]c5cc5ccc(F)c(F)c45)nc(c23)OC[C@@H]1C (stereo partly shown)	nM	=	0.2
CC(c1cccnc1N)N1CCOc2nc(-c3cc(N)ccc3C(F)(F)F)c(F)c3nc(OC[C@@]45CCCN4C[C@H](F)C5)nc1c23 (single isomer, unassigned) [Compound 53]	nM	=	191
[2H]C1([2H])CC[C@@]2(C([2H])([2H])Oc3nc4c5c(nc(-c6cc(O)cc(Cl)c6C6CC6)c(F)c5n3)OCCN4C(C)c3cccnc3N)C[C@@H](F)CN12 (single isomer, unassigned)	nM	=	1
